B1: RSPH3 (parent)
chain: FIPAKTGKDVATQILEGELFDFDL

Variants of: B1
Experiment Summary: protein stability index of a GFP-peptide fusion (GPS, HEK-293T) (PSI 1-6); higher = more stable;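 note: lentivirally expressed fusions sorted by FACS into six bins by GFP to DsRed ratio, PSI derived from sequencing read proportions per bin multiplied by bin number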
Particulars: c terminus: a fixed tail appended
In this section we review reported protein stability index values for a set of variants.
Number only, please.

INSERT INTO measurements (mutation_list, measured_result) VALUES
  ('L15G', 1.89);

Return reported protein stability index; argument: `G17W`
1.95

Recorded protein stability index of `T12C` , please.
2.02

May I ask what protein stability index has been recorded for `F22R` ?
2.42

Entry `G17D` : reported protein stability index = ?
1.75

Form field: reported protein stability index of `E16I`
2.24

Recorded protein stability index of `K8D` , please.
2.22

Quick one: protein stability index of `D9T` ?
1.77

Can you look up the measured protein stability index of `T6Q` for me?
1.64

So what does the record say about protein stability index for `P3I` ?
1.97

I'd like to know its protein stability index. The variant in question is `D21E`
1.49

I would be grateful if you could share the reported protein stability index for `A11C` .
2

Which measured protein stability index value corresponds to `D9F` ?
2.59

Any idea what its protein stability index is? The variant is `I2L`
3.02

Any idea what its protein stability index is? The variant is `F1L`
3.56

Returns the measured protein stability index for the input variant. Input: `T6L`
1.87

# input variant: `F1Q` ; wanted: its protein stability index
4.69

I have this variant here, `F20W` , and I need its recorded protein stability index.
2.26

Quick check: protein stability index of `D21W` ?
3.1

Requested read-out: protein stability index. Entry: `G17M`
1.71

I would be grateful if you could share the reported protein stability index for `I2M` .
3.26

What value of protein stability index has been recorded for this entry: `D9Y`
2.06
